Kindly supply the reported cell viability/% values for the records listed here.
system: P388 mouse leukemia cells; details: 92 h
Where a SMILES comes first, the peptide text is derived from it. [ ]: non-standard residue; d: D form. The star is where a group is joined. NHCH2CH2OH = OCCN*; For = O=C*
Could you give me the number in %? Just the number is fine.

[Q] Give the measured cell viability/% of CC(C)C[C@@H](NC(=O)[C@H](C)NC(=O)[C@H](NC(=O)[C@H](C)NC(=O)CNC(=O)[C@@H](NC=O)C(C)C)C(C)C)C(=O)N[C@H](C(=O)N[C@@H](C(=O)N[C@@H](Cc1c[nH]c2ccccc12)C(=O)N[C@@H](C(=O)N[C@@H](Cc1c[nH]c2ccccc12)C(=O)N[C@@H](C(=O)N[C@@H](Cc1c[nH]c2ccccc12)C(=O)N[C@H](CC(C)C)C(=O)N[C@@H](Cc1c[nH]c2ccccc12)C(=O)NCCO)C(C)C)C(C)C)[C@H](C)O)C(C)C [compound 11143] (For-VGA[dV]A[dL]V[dT]W[dV]W[dV]W[dL]W-NHCH2CH2OH) .
[A] 63.4

[Q] Fill in the blank: the reported cell viability/% of CC(C)C[C@@H](NC(=O)[C@H](C)NC(=O)CNC(=O)[C@@H](NC=O)C(C)C)C(=O)N[C@@H](C)C(=O)N[C@H](CC(C)C)C(=O)N[C@H](C(=O)N[C@H](CC(C)C)C(=O)N[C@@H](Cc1c[nH]c2ccccc12)C(=O)N[C@H](CC(C)C)C(=O)N[C@@H](Cc1c[nH]c2ccccc12)C(=O)N[C@H](CC(C)C)C(=O)N[C@@H](Cc1c[nH]c2ccccc12)C(=O)N[C@@H](C(=O)N[C@@H](Cc1c[nH]c2ccccc12)C(=O)NCCO)C(C)C)C(C)C [compound 2205] (For-VGA[dL]A[dL]V[dL]W[dL]W[dL]W[dV]W-NHCH2CH2OH) is ____.
[A] 0.0

[Q] What value of cell viability/% has been reported for the following molecule? CC(C)C[C@@H](NC(=O)[C@H](C)NC(=O)[C@H](NC(=O)[C@H](C)NC(=O)CNC(=O)[C@@H](NC=O)C(C)C)[C@H](C)O)C(=O)N[C@H](C(=O)N[C@H](CC(C)C)C(=O)N[C@@H](Cc1c[nH]c2ccccc12)C(=O)N[C@@H](C(=O)N[C@@H](Cc1c[nH]c2ccccc12)C(=O)N[C@H](CC(C)C)C(=O)N[C@@H](Cc1c[nH]c2ccccc12)C(=O)N[C@H](CC(C)C)C(=O)N[C@@H](Cc1c[nH]c2ccccc12)C(=O)NCCO)C(C)C)C(C)C [compound 11561] (For-VGA[dT]A[dL]V[dL]W[dV]W[dL]W[dL]W-NHCH2CH2OH)
[A] 100.0

[Q] Reported cell viability/%, molecule CC(C)C[C@@H](NC(=O)[C@H](Cc1c[nH]c2ccccc12)NC(=O)[C@H](NC(=O)[C@@H](NC(=O)[C@H](NC(=O)[C@H](C)NC(=O)[C@H](NC(=O)[C@H](C)NC(=O)CNC(=O)[C@@H](NC=O)C(C)C)[C@H](C)O)C(C)C)C(C)C)C(C)C)C(=O)N[C@@H](Cc1c[nH]c2ccccc12)C(=O)N[C@@H](C(=O)N[C@@H](Cc1c[nH]c2ccccc12)C(=O)N[C@@H](C(=O)N[C@@H](Cc1c[nH]c2ccccc12)C(=O)NCCO)C(C)C)C(C)C [compound 12298] (For-VGA[dT]A[dV]V[dV]W[dL]W[dV]W[dV]W-NHCH2CH2OH) : ____
[A] 100.0

---

test system: Streptococcus pyogenes SSI-9; experiment: Antibacterial activity assay of bead-derived peptides (three concentrations); assay type: cell-based; set-up: key: +++: inhibition by the 640-fold diluted peptide solution; ++: inhibition by the 160-fold diluted solution; +: inhibition by the 40-fold diluted solution; -: no inhibition; conditions: S. pyogenes, bead-derived peptide solution, three concentrations
Where a SMILES comes first, the peptide text is derived from it. [ ]: non-standard residue; d: D form. The star is where a group is joined. NHCH2CH2OH = OCCN*; For = O=C*

[
  {
    "MOLECULE": "CNC(=O)C[C@@H](NC(=O)[C@@H](NC(=O)[C@H](NC(=O)[C@H](C)NC(=O)[C@@H](CC(C)C)NC(=O)[C@H](C)NC(=O)CNC(=O)[C@@H](NC=O)C(C)C)C(C)C)C(C)C)C(=O)N[C@@H](Cc1c[nH]c2ccccc12)C(=O)N[C@@H](C(=O)N[C@@H](Cc1c[nH]c2ccccc12)C(=O)N[C@H](CC(C)C)C(=O)N[C@@H](Cc1c[nH]c2ccccc12)C(=O)N[C@@H](C(=O)N[C@@H](Cc1c[nH]c2ccccc12)C(=O)NCCO)C(C)C)C(C)C [compound 5185] (For-VGA[dL]A[dV]V[dD](NHMe)W[dV]W[dL]W[dV]W-NHCH2CH2OH)",
    "antibacterial activity": "-"
  }
]

---

test system: rabbit red blood cells; conditions: red cells of rabbit, 2 h
Where a SMILES comes first, the peptide text is derived from it. [ ]: non-standard residue; d: D form. The star is where a group is joined. NHCH2CH2OH = OCCN*; For = O=C*
MEASURE: Hemolytic activity HC10 (concentration causing 10% hemolysis) (nM)
Provide only the numeric value, understood in nM.

[Q] Find the measured Hemolytic activity HC10 (concentration causing 10% hemolysis): item CC(C)C[C@@H](NC(=O)[C@H](C)NC(=O)CNC(=O)[C@@H](NC=O)C(C)C)C(=O)N[C@@H](C)C(=O)N[C@H](CC(C)C)C(=O)N[C@H](C(=O)N[C@H](CC(C)C)C(=O)N[C@@H](Cc1c[nH]c2ccccc12)C(=O)N[C@H](CC(C)C)C(=O)N[C@@H](Cc1c[nH]c2ccccc12)C(=O)N[C@@H](C(=O)N[C@@H](Cc1c[nH]c2ccccc12)C(=O)N[C@@H](C(=O)N[C@@H](Cc1c[nH]c2ccccc12)C(=O)NCCO)C(C)C)[C@H](C)O)C(C)C [B11] (For-VGA[dL]A[dL]V[dL]W[dL]W[dT]W[dV]W-NHCH2CH2OH) , target or system rabbit red blood cells.
[A] 910

[Q] What measured Hemolytic activity HC10 (concentration causing 10% hemolysis) is associated with CC(C)C[C@@H](NC(=O)[C@H](Cc1c[nH]c2ccccc12)NC(=O)[C@@H](CC(C)C)NC(=O)[C@H](Cc1c[nH]c2ccccc12)NC(=O)[C@@H](CC(C)C)NC(=O)[C@H](Cc1c[nH]c2ccccc12)NC(=O)[C@H](NC(=O)[C@@H](NC(=O)[C@H](NC(=O)[C@H](C)NC(=O)[C@H](NC(=O)[C@H](C)NC(=O)CNC(=O)[C@@H](NC=O)C(C)C)C(C)C)C(C)C)C(C)C)C(C)C)C(=O)N[C@@H](Cc1c[nH]c2ccccc12)C(=O)NCCO [A1] (For-VGA[dV]A[dV]V[dV]W[dL]W[dL]W[dL]W-NHCH2CH2OH) on rabbit red blood cells?
[A] 240

[Q] Can you look up Hemolytic activity HC10 (concentration causing 10% hemolysis) on rabbit red blood cells for CC(C)C[C@@H](NC(=O)[C@H](C)NC(=O)CNC(=O)[C@@H](NC=O)C(C)C)C(=O)N[C@@H](C)C(=O)N[C@@H](C(=O)N[C@H](C(=O)N[C@@H](C(=O)N[C@@H](Cc1c[nH]c2ccccc12)C(=O)N[C@H](CC(C)C)C(=O)N[C@@H](Cc1c[nH]c2ccccc12)C(=O)N[C@H](CC(C)C)C(=O)N[C@@H](Cc1c[nH]c2ccccc12)C(=O)N[C@H](CC(C)C)C(=O)N[C@@H](Cc1c[nH]c2ccccc12)C(=O)NCCO)C(C)C)C(C)C)C(C)C [compound 1, Gramicidin A] (For-VGA[dL]A[dV]V[dV]W[dL]W[dL]W[dL]W-NHCH2CH2OH) ?
[A] 160

[Q] Missing value: Hemolytic activity HC10 (concentration causing 10% hemolysis), rabbit red blood cells, entry CC(C)C[C@@H](NC(=O)[C@H](C)NC(=O)[C@H](NC(=O)[C@H](C)NC(=O)CNC(=O)[C@@H](NC=O)C(C)C)C(C)C)C(=O)N[C@H](C(=O)N[C@@H](C(=O)N[C@@H](Cc1c[nH]c2ccccc12)C(=O)N[C@@H](C(=O)N[C@@H](Cc1c[nH]c2ccccc12)C(=O)N[C@H](CC(C)C)C(=O)N[C@@H](Cc1c[nH]c2ccccc12)C(=O)N[C@H](CC(C)C)C(=O)N[C@@H](Cc1c[nH]c2ccccc12)C(=O)NCCO)C(C)C)C(C)C)C(C)C [B02] (For-VGA[dV]A[dL]V[dV]W[dV]W[dL]W[dL]W-NHCH2CH2OH) . Fill in?
[A] 1400

---

Task for the reader: assign each of the following compounds its reported viability.
conditions: cell viability/%
Where a SMILES comes first, the peptide text is derived from it. [ ]: non-standard residue; d: D form. The star is where a group is joined. NHCH2CH2OH = OCCN*; For = O=C*
Please give a number only; it is taken to be in %.

[Q] I am curious: what viability value has been reported for CC(C)C[C@@H](NC(=O)[C@H](C)NC(=O)CNC(=O)[C@@H](NC=O)C(C)C)C(=O)N[C@@H](C)C(=O)N[C@@H](C(=O)N[C@H](C(=O)N[C@@H](C(=O)N[C@@H](Cc1c[nH]c2ccccc12)C(=O)N[C@H](CC(C)C)C(=O)N[C@@H](Cc1c[nH]c2ccccc12)C(=O)N[C@@H](C(=O)N[C@@H](Cc1c[nH]c2ccccc12)C(=O)N[C@@H](C(=O)N[C@@H](Cc1c[nH]c2ccccc12)C(=O)NCCO)C(C)C)[C@H](C)O)C(C)C)C(C)C)C(C)C [compound 87] (For-VGA[dL]A[dV]V[dV]W[dL]W[dT]W[dV]W-NHCH2CH2OH) ?
[A] 100

[Q] Fill in: viability of CC(C)C[C@@H](NC(=O)[C@H](Cc1c[nH]c2ccccc12)NC(=O)[C@H](NC(=O)[C@H](Cc1c[nH]c2ccccc12)NC(=O)[C@H](NC(=O)[C@H](Cc1c[nH]c2ccccc12)NC(=O)[C@H](NC(=O)[C@@H](NC(=O)[C@H](NC(=O)[C@H](C)NC(=O)[C@H](NC(=O)[C@H](C)NC(=O)CNC(=O)[C@@H](NC=O)C(C)C)C(C)C)C(C)C)C(C)C)[C@H](C)O)C(C)C)C(C)C)C(=O)N[C@@H](Cc1c[nH]c2ccccc12)C(=O)NCCO [compound 5542] (For-VGA[dV]A[dV]V[dT]W[dV]W[dV]W[dL]W-NHCH2CH2OH) is ___
[A] 100
